experiment: in vitro; details: human, hela cells, % viability
viability at 28.5 h, 10 µM strictly less than 90% = MET. Otherwise NOT MET.

>>> df
                                   compound  assigned_label
0  O=S(=O)(c1ccc(Br)cc1C(F)(F)F)N1CCOCC1 [CBK062405]         NOT MET
1  CC(C)(C)c1ccc(-c2cnc(N)c3ncccc23)cc1 [CBK067589]         NOT MET
2  NS(=O)(=O)c1ccc(Nc2nc(-c3cccs3)cs2)cc1 [CBK262502]         NOT MET
3  CC(Sc1nc2c(N)ncnc2[nH]1)C(=O)O (stereo not drawn) [CBK261814]         NOT MET
4  CCN(CC)C(=O)CN1CCC(c2ccccc2F)CC1 [CBK283549]         NOT MET
5  O=C(O)c1cc(Br)cc2c3c([nH]c12)CCCC3 [CBK100973]         NOT MET
6  CCOc1ccc(CNc2sc3c(c2C(=O)Nc2ccc(OC)cc2)CCC3)cc1 [CBK294473]             MET
7  O=C(NCc1cccnc1)c1cc2c(ccc3ccccc32)oc1=O [CBK270195]         NOT MET
8  CCn1cc(CC(=O)NCCn2ccc(C)n2)c2ccccc21 [CBK282670]         NOT MET
9  C=CCC(NCc1ccccc1)c1ccc(C(=O)O)o1 (stereo not drawn) [CBK286591]             MET

Lab note: next compound to report on.
Hello, I'm reviewing records and need to know if viability at 28.5 h, 10 µM of CCOc1cccc(-c2ccc(N(C)CCN(C)C)nc2)c1 [CBK036904] is below 90%. Could you check?
NOT MET
